target: leptin receptor (ObR) naturally expressed on MCF-7, LN229 and LN18 cells (human); assay: cell-based or functional assay
Where no end group is shown, it is not given here. [ ]: non-standard residue; d: D form. NMeR = CN[C@@H](CCCNC(=N)N)C(=O)O; aThr = C[C@H](O)[C@H](N)C(=O)O; Nva = CCC[C@H](N)C(=O)O; Ahx = NCCCCCC(=O)O; βAla = NCCC(=O)O
Property measured: IC50, proliferation of ObR-positive cancer cells in the presence of leptin (6 nM)

[[record]]
binder = "E[Nva]VALSR[Ahx]-NH2 (N-terminus assumed; SMILES CCC[C@H](NC(=O)[C@@H](N)CCC(=O)O)C(=O)N[C@H](C(=O)N[C@@H](C)C(=O)N[C@@H](CC(C)C)C(=O)N[C@@H](CO)C(=O)N[C@@H](CCCNC(=N)N)C(=O)NCCCCCC(N)=O)C(C)C) [peptide of amino acid sequence Glu-Nva-Val-Ala-Leu-Ser-Arg-AcpNH2 [SEQ ID NO:51]]"
measured = 50

[[record]]
binder = "[dS]E[Nva]VALS[NMeR][βAla]-NH2 [peptide of amino acid sequence (D)-Ser-Glu-Nva-Val-Ala-Leu-Ser-N-MeArg-bAlaNH2 [SEQ ID NO:6]]"
measured = 0.2

[[record]]
binder = "TE[Nva]VALSR[Ahx]-NH2 (N-terminus assumed; SMILES CCC[C@H](NC(=O)[C@H](CCC(=O)O)NC(=O)[C@@H](N)[C@@H](C)O)C(=O)N[C@H](C(=O)N[C@@H](C)C(=O)N[C@@H](CC(C)C)C(=O)N[C@@H](CO)C(=O)N[C@@H](CCCNC(=N)N)C(=O)NCCCCCC(N)=O)C(C)C) [peptide of amino acid sequence Thr-Glu-Nva-Val-Ala-Leu-Ser-Arg-AcpNH2 [SEQ ID NO:4]]"
measured = 5

[[record]]
binder = "TE[Nva][Nva]ALSR[Nva]-NH2 (N-terminus assumed; SMILES CCC[C@H](NC(=O)[C@H](CCCNC(=N)N)NC(=O)[C@H](CO)NC(=O)[C@H](CC(C)C)NC(=O)[C@H](C)NC(=O)[C@H](CCC)NC(=O)[C@H](CCC)NC(=O)[C@H](CCC(=O)O)NC(=O)[C@@H](N)[C@@H](C)O)C(N)=O) [peptide of amino acid sequence Thr-Glu-Nva-Nva-Ala-Leu-Ser-Arg-NvaNH2 [SEQ ID NO:47]]"
measured = 1000

[[record]]
binder = "[aThr]E[Nva]VALSR[Ahx]-NH2 (N-terminus assumed; SMILES CCC[C@H](NC(=O)[C@H](CCC(=O)O)NC(=O)[C@@H](N)[C@H](C)O)C(=O)N[C@H](C(=O)N[C@@H](C)C(=O)N[C@@H](CC(C)C)C(=O)N[C@@H](CO)C(=O)N[C@@H](CCCNC(=N)N)C(=O)NCCCCCC(N)=O)C(C)C) [peptide of amino acid sequence alloThr-Glu-Nva-Val-Ala-Leu-Ser-Arg-AcpNH2 [SEQ ID NO:49]]"
measured = 0.2

